Listed here: compounds with reported EC50 for LHRH binding sites on human ovarian cancer cells (EFO-27).
PARAMETER MEASURED: EC50 (nM)

SMILES REPRESENTATION | UNIT INFO | READING
CNCC(=O)N[C@@H](CCCNC(=N)N)C(=O)N[C@@H](Cc1c[nH]c2ccccc12)C(=O)N[C@@H](CO)C(=O)N[C@@H](Cc1c[nH]cn1)C(=O)N[C@H](CCCNC(=N)N)C(=O)N[C@@H](Cc1c[nH]c2ccccc12)C(=O)N[C@@H](Cc1ccc(C(=O)c2ccccc2)cc1)C(=O)N1CCC[C@H]1C(=O)NCCOCCN | nM | 220
CC(=O)N[C@@H](Cc1ccc(CNC(=O)CN2CCN(CC(=O)O)CCN(CC(=O)O)CCN(CC(=O)O)CC2)cc1)C(=O)N[C@@H](Cc1c[nH]cn1)C(=O)N[C@@H](Cc1c[nH]c2ccccc12)C(=O)N[C@@H](CO)C(=O)N[C@@H](Cc1c[nH]cn1)C(=O)N[C@H](CCCNC(=N)N)C(=O)N[C@@H](Cc1c[nH]c2ccccc12)C(=O)N[C@@H](Cc1ccc(C(=O)c2ccccc2)cc1)C(=O)N1CCC[C@H]1C(=O)NNC(N)=O | nM | 1380
